Hey, just so you know, these numbers are from PubChem BioAssay AID1996.

The entries below are paired with their reported solubility kinetic.
EXPERIMENTAL PARAMETERS: buffer; pH 7.4; 200.0 µM

Reference set (2 entries):
In [3]: df
Out[3]:
                                 compound          value_kind        result
0   Cc1csc(NC(=O)CCCNC(=O)c2ccc(Cl)cc2)n1  solubility kinetic    10.2 µg/mL
1  CN(C)S(=O)(=O)c1cccc(NC(=O)Cc2ccsc2)c1  solubility kinetic  > 48.7 µg/mL

# input Dear colleague, I am looking for the recorded solubility kinetic of the following compound: "O=C(NN1CCOCC1)c1ccc(Cl)c([N+](=O)[O-])c1"
# output > 42.9 µg/mL

# input Dear colleague, I am looking for the recorded solubility kinetic of the following compound: "O=c1[nH]c(=S)n(C2CC2)c(O)c1C=NCc1cccnc1"
# output > 45.4 µg/mL

# input Dear colleague, I am looking for the recorded solubility kinetic of the following compound: "O=C(Nc1ccc2ccccc2c1)c1ccccc1F"
# output < 0.6 µg/mL

# input Dear colleague, I am looking for the recorded solubility kinetic of the following compound: Cc1ccccc1NC(=O)NC1CCCc2ccccc21 (stereo unspecified)
# output 0.9 µg/mL

----------
EXPERIMENTAL PARAMETERS: buffer; pH 7.4; 200.0 µM
VALUE KIND: solubility kinetic

                                   compound        result
0    O=C(CCNS(=O)(=O)c1ccccc1F)OCc1ccccc1Cl    34.5 µg/mL
1  CC1CCC(NS(=O)(=O)c2cccc3nsnc23)CC1 (stereo not given)  > 46.7 µg/mL
2                  CCN1CCC(N(C)C2CCCCC2)CC1      24 µg/mL

# input Dear colleague, I am looking for the recorded solubility kinetic of the following compound: "Cc1ccc(S(=O)(=O)NC(=O)c2ccc(F)cc2)c(C)c1"
# output > 46.1 µg/mL

# input Dear colleague, I am looking for the recorded solubility kinetic of the following compound: "Cc1c(NC(=O)COC(=O)C2=COCCO2)cccc1[N+](=O)[O-]"
# output > 48.3 µg/mL

# input Dear colleague, I am looking for the recorded solubility kinetic of the following compound: "O=C(Nc1cccnc1)c1cc2cc(Br)ccc2o1"
# output 0.9 µg/mL

# input Dear colleague, I am looking for the recorded solubility kinetic of the following compound: "C=C(C)CN(Cc1ccccc1)C(=S)Nc1ccccc1"
# output 1.9 µg/mL

# input Dear colleague, I am looking for the recorded solubility kinetic of the following compound: "COc1cc2c(cc1OC)CN(Cc1cc(OC)c(O)c(OC)c1)CC2"
# output 47.7 µg/mL

# input Dear colleague, I am looking for the recorded solubility kinetic of the following compound: COc1cc(S(=O)(=O)NC2CCCCC2C)ccc1F (stereo not given)
# output > 45.2 µg/mL

# input Dear colleague, I am looking for the recorded solubility kinetic of the following compound: "COC(=O)c1cc(OC)c(OC)cc1N1C(=O)CC(C)(C)CC1=O"
# output > 50.3 µg/mL

# input Dear colleague, I am looking for the recorded solubility kinetic of the following compound: "O=C1CSC(=Nc2cccc(Cl)c2Cl)N1Cc1cccnc1"
# output 30.8 µg/mL

# input Dear colleague, I am looking for the recorded solubility kinetic of the following compound: "CC(C)Cn1c(N)c(C=O)c(=O)n(C)c1=O"
# output > 33.8 µg/mL

# input Dear colleague, I am looking for the recorded solubility kinetic of the following compound: Cc1ccc(/C=C/C(=O)N2CCCC(C(N)=O)C2)o1 (stereo not given)
# output > 39.3 µg/mL

# input Dear colleague, I am looking for the recorded solubility kinetic of the following compound: "O=C1CNC(=O)/C(=C\c2ccc(F)cc2)N1"
# output 5 µg/mL

# input Dear colleague, I am looking for the recorded solubility kinetic of the following compound: "CCN(CC)CC#CC(O)(c1ccccc1)c1ccccc1"
# output > 44 µg/mL

# input Dear colleague, I am looking for the recorded solubility kinetic of the following compound: "COc1ccc(NC(=O)Nc2cnccn2)cc1OC"
# output > 41.1 µg/mL

# input Dear colleague, I am looking for the recorded solubility kinetic of the following compound: "CC(=O)c1cccc(S(=O)(=O)Nc2c(C)nn(C)c2C)c1"
# output > 46.1 µg/mL

# input Dear colleague, I am looking for the recorded solubility kinetic of the following compound: "CCN(CC)CCOC(=O)C(O)(c1ccccc1)c1ccccc1.Cl"
# output > 54.6 µg/mL

# input Dear colleague, I am looking for the recorded solubility kinetic of the following compound: "Cc1ccc(OCC(=O)Nc2c[nH]c(=O)[nH]c2=O)cc1C"
# output 1 µg/mL

# input Dear colleague, I am looking for the recorded solubility kinetic of the following compound: O=C1NCCCCC1NS(=O)(=O)c1cccc(C(F)(F)F)c1 (stereo not given)
# output > 50.4 µg/mL

# input Dear colleague, I am looking for the recorded solubility kinetic of the following compound: "Cn1cnc(S(=O)(=O)N2CCN(c3ccc(F)cc3)CC2)c1"
# output > 48.7 µg/mL

# input Dear colleague, I am looking for the recorded solubility kinetic of the following compound: "CCOc1cccc(/C=N/NC(=O)c2cccnc2)c1O"
# output > 42.8 µg/mL

----------
The entries below are paired with their reported log10(solubility kinetic).
EXPERIMENTAL PARAMETERS: buffer; pH 7.4; 200.0 µM
The common logarithm of solubility kinetic in µg/mL is what is listed.

Reference set (3 entries):
In [3]: df
Out[3]:
                                   molecule  readout_number
0   COc1ccccc1C(=O)O/N=C(\c1ccccc1)c1ccncc1            1.53
1      N/C(=N\OC(=O)c1cccc2ccccc12)c1ccccn1            1.58
2  Cn1c(N)c(C(=O)Nc2ccc(-c3ccccc3)cc2)sc1=S           -0.22

# input Dear colleague, I am looking for the recorded log10(solubility kinetic) of the following molecule: "Cc1cccc(OCc2nc(-c3ccc(Br)o3)no2)c1"
# output 0.00

# input Dear colleague, I am looking for the recorded log10(solubility kinetic) of the following molecule: "CN(C)/C=N/c1nc(-c2ccc3ccccc3c2)cs1"
# output 1.20

# input Dear colleague, I am looking for the recorded log10(solubility kinetic) of the following molecule: "Cc1ccc(C)c(OCc2cc(C(=O)N3CCOCC3)no2)c1"
# output 1.62

# input Dear colleague, I am looking for the recorded log10(solubility kinetic) of the following molecule: Cc1ccc(C(C)NC(=O)c2ccc3c(c2)OCO3)cc1C (centres undefined)
# output 1.60

----------
EXPERIMENTAL PARAMETERS: buffer; pH 7.4; 200.0 µM
VALUE KIND: solubility kinetic (µg/mL)
Enter your answer as a number in µg/mL; do not include the unit.

                                   compound          value_kind  readout_number
0  CCc1ccccc1OCC(=O)NCC1COc2ccccc2O1 (configuration not stated)  solubility kinetic            14.9

# input Dear colleague, I am looking for the recorded solubility kinetic of the following compound: "COc1ccc(C(=O)N2CCCN(C)CC2)c(OC)c1"
# output 36.5

# input Dear colleague, I am looking for the recorded solubility kinetic of the following compound: "CCCCOc1ccc(C(=O)OCC(=O)N2CCCCCC2)cc1"
# output 8.4

# input Dear colleague, I am looking for the recorded solubility kinetic of the following compound: "Cc1c(Cl)cccc1NC(=O)Nc1cccnc1"
# output 34.9

# input Dear colleague, I am looking for the recorded solubility kinetic of the following compound: "C/C(=C\c1ccccc1)C(=O)N1CCN(Cc2ccc3c(c2)OCO3)CC1"
# output 51.8

# input Dear colleague, I am looking for the recorded solubility kinetic of the following compound: CCN(CC)C(=S)SC1CCCCN(C(=O)c2ccc(F)cc2)C1=O (configuration not stated)
# output 5.2

----------
EXPERIMENTAL PARAMETERS: buffer; pH 7.4; 200.0 µM
The entries below are paired with their reported log10 of solubility kinetic.
The common logarithm of solubility kinetic in µg/mL is what is listed.

Reference set (6 entries):
In [3]: df
Out[3]:
                                   compound                   value_kind  readout_number
0  c1ccc(-c2ccc(C(c3ccccc3)n3ccnc3)cc2)cc1 (centres undefined)  log10 of solubility kinetic           -0.15
1  CCOC(=O)C1CCCN(S(=O)(=O)c2ccc3ccccc3c2)C1 (centres undefined)  log10 of solubility kinetic            1.11
2     COc1ccc(OC)c(Nc2c3ccccc3nc3ccccc23)c1  log10 of solubility kinetic            1.09
3        O=C(Nc1ccc2c(c1)OCCO2)c1cccc(Br)c1  log10 of solubility kinetic            0.51
4     CCOc1ncccc1C(=O)OCC(=O)c1ccc(C)c(C)c1  log10 of solubility kinetic            1.23
5                Cc1ccc(C(=O)Nc2ncc(C)s2)s1  log10 of solubility kinetic            0.85

# input Dear colleague, I am looking for the recorded log10 of solubility kinetic of the following compound: "Cc1ccc2nc(-c3cccnc3)c(Nc3ccccc3C)n2c1"
# output 0.34

# input Dear colleague, I am looking for the recorded log10 of solubility kinetic of the following compound: CC(=O)N(CCC(c1ccco1)C(C)C)Cc1ccc(Cl)cc1 (centres undefined)
# output 1.21

# input Dear colleague, I am looking for the recorded log10 of solubility kinetic of the following compound: "Cc1cccc(N(O)C(=O)Nc2cccc(Cl)c2)c1"
# output 1.01

# input Dear colleague, I am looking for the recorded log10 of solubility kinetic of the following compound: "Cc1ccc2sc(=O)[nH]c2c1"
# output 1.29

# input Dear colleague, I am looking for the recorded log10 of solubility kinetic of the following compound: "CN(C)CCNC(=O)c1sc2cccc(F)c2c1Cl"
# output 1.60

# input Dear colleague, I am looking for the recorded log10 of solubility kinetic of the following compound: "COC1=C(Nc2ccccc2OC)C(=O)c2ccccc2C1=O"
# output 1.24

# input Dear colleague, I am looking for the recorded log10 of solubility kinetic of the following compound: "COc1cc(C(C)=O)ccc1OCC(=O)NC(=O)Nc1ccc(C)cc1C"
# output 1.15

# input Dear colleague, I am looking for the recorded log10 of solubility kinetic of the following compound: "Cl.Fc1ccc(Nc2ncnc3ccccc23)cc1"
# output 1.57

# input Dear colleague, I am looking for the recorded log10 of solubility kinetic of the following compound: "Cc1ccc(C(=O)Nc2cccnc2Cl)cc1Cl"
# output 1.52

# input Dear colleague, I am looking for the recorded log10 of solubility kinetic of the following compound: CCOC(=O)C1CCCN(S(=O)(=O)Cc2ccc(Cl)cc2)C1 (centres undefined)
# output 1.71

# input Dear colleague, I am looking for the recorded log10 of solubility kinetic of the following compound: COc1ccccc1CCNC(C)CCc1ccc(O)cc1 (centres undefined)
# output 1.52

# input Dear colleague, I am looking for the recorded log10 of solubility kinetic of the following compound: "NS(=O)(=O)c1cccc(NC(=O)CN2C(=O)C(=O)N(Cc3ccccc3)C2=O)c1"
# output 1.78

# input Dear colleague, I am looking for the recorded log10 of solubility kinetic of the following compound: "CCOc1ccccc1NC(=O)COC(=O)/C=C/c1cccs1"
# output 0.49

# input Dear colleague, I am looking for the recorded log10 of solubility kinetic of the following compound: "COc1ccc(/C=C2\N=C(c3ccc(C)cc3)OC2=O)cc1"
# output 0.54
